assay: gradient 5% acetonitrile 3 min, to 50% in 2 min, to 85% in 15 min, held 3 min, 100 µL/min; conditions: column: Zorbax Extend-C18 2.1 x 50 mm; eluents: water / acetonitrile, 0.1% formic acid
Metric Name: RP-LC retention time (s)

[
  {
    "Molecule": "COc1ccc(-c2nc(NCc3ccco3)ncc2C(=O)O)cc1",
    "RP-LC retention time / s": 781
  },
  {
    "Molecule": "O=C(NCc1ccc(F)c(Cl)c1)C1CCCN(c2ncnc3c2oc2ccccc23)C1 (stereo unspecified)",
    "RP-LC retention time / s": 818
  },
  {
    "Molecule": "COc1ccc(C)cc1NC(=O)C1CCN(S(=O)(=O)c2ccc3c(c2)NC(=O)C(C)O3)CC1 (stereo unspecified)",
    "RP-LC retention time / s": 788
  },
  {
    "Molecule": "Cc1cc(=O)oc2cc(OS(C)(=O)=O)ccc12",
    "RP-LC retention time / s": 782
  },
  {
    "Molecule": "O=C(c1ccsc1)N1CCC2(CC1)NC(=O)N(Cc1cccc(Cl)c1)C2=O",
    "RP-LC retention time / s": 816
  },
  {
    "Molecule": "COc1ccc(-c2cc(N3CCC(NC(=O)C4(c5ccccc5)CC4)CC3)n[nH]2)cc1",
    "RP-LC retention time / s": 817
  }
]
